test system: NCI-H460 lung; test: NCI tumour cell line growth inhibition, 48 h
Recorded TGI, one value per entry.
Value Type: TGI

Compound	Test Target	Result
Brc1ccc(N=c2nc3ccccn3n3nc(-c4ccccc4)cc23)cc1	NCI-H460 lung	> 100 µM
Cc1ccc(SCC(CSCCO)OCn2cnc3c2NC(N)=NC32OCCO2)cc1 (centres undefined)	NCI-H460 lung	> 100 µM
CC12CCC(O)CC1CCC1C2CCC2(C)C(C3=CC(=O)OC3)CCC12O (centres undefined)	NCI-H460 lung	3.99 µM
COc1ccc2c(c1)/C(=C/c1c(C)nc3sc(C)nn13)C(=O)N2	NCI-H460 lung	> 32.6 µM
COC(=O)CC1CCN(C#N)CC1CC[N+](=O)[O-] (centres undefined)	NCI-H460 lung	> 100 µM
Cc1ccc(C(=O)/C(=C/c2ccc([N+](=O)[O-])cc2)SCc2ccc(Cl)cc2)cc1	NCI-H460 lung	12 µM
COc1ccc2c(C3=C(c4cn(C)c5ccccc45)C(=O)NC3=O)cn(C)c2c1	NCI-H460 lung	> 25 µM
CCOC(=O)c1c2ccccc2n2c(N)c(C(N)=O)nnc12	NCI-H460 lung	> 100 µM
CC(=O)NNc1nc(C)c(C(=O)NNC(=O)C(=O)Nc2c(Cl)cc([N+](=O)[O-])cc2Cl)s1	NCI-H460 lung	> 100 µM
FC(F)(F)c1cc(Cl)cnc1N/N=C(/c1ccccc1)c1ccccn1	NCI-H460 lung	15 µM
CC(=O)NC1=C(NCCC(C)C)C(=O)c2ccccc2C1=O	NCI-H460 lung	> 50 µM
Cc1ccc2c(=O)cc(-c3ccc(F)cc3)[nH]c2n1	NCI-H460 lung	> 100 µM
OCc1ccc(N2CCC2c2ccc(F)cc2)cc1Cl (centres undefined)	NCI-H460 lung	12.4 µM
C/C(CC(=O)CCC(=O)Nc1cccc(C(F)(F)F)c1)=N\NC(=O)NN	NCI-H460 lung	> 100 µM
Oc1ccc(-c2nc(-c3cccnc3)c(-c3ccc(F)cc3)[nH]2)cc1	NCI-H460 lung	63.9 µM
O=C([O-])CC(=O)[O-].O=C([O-])CC(=O)[O-].[K+].[Pd+2]	NCI-H460 lung	> 100 µM
CO[C@H](C(=O)[C@@H](O)[C@@H](C)O)[C@@H]1Cc2cc3cc(O[C@H]4C[C@@H](O[C@H]5C[C@@H](O)[C@H](O)C(C)O5)[C@H](O)C(C)O4)c(C)c(O)c3c(O)c2C(=O)[C@H]1O[C@H]1C[C@@H](O[C@H]2C[C@@H](O[C@H]3C[C@](C)(O)C(=O)C(C)O3)[C@@H](O)C(C)O2)[C@H](O)C(C)O1 (some centres undefined)	NCI-H460 lung	> 33.2 µM
COc1ccc2c3c1C(=O)CCCC3CO2 (centres undefined)	NCI-H460 lung	> 100 µM
COC(=O)C1CCC(=O)N1C(c1ccccc1)c1ccc(OC)c(OC)c1 (centres undefined)	NCI-H460 lung	> 100 µM
O=S1(=O)c2ccccc2NC(c2ccc3ccccc3c2)CC1c1ccccc1F (centres undefined)	NCI-H460 lung	> 100 µM
O=c1[nH][nH]c(=O)n1Cc1ccccc1Cn1c(=O)[nH][nH]c1=O	NCI-H460 lung	> 100 µM
CCC12C=CCN3CCC4(C(=C(C(=O)OC)[C@@H]1O)Nc1ccccc14)C32 (some centres undefined)	NCI-H460 lung	3.71 µM
O=[N+]([O-])C(=C1NCCN1)/C(Cl)=C(\Cl)Br	NCI-H460 lung	> 100 µM
C=C1c2nc3ccccc3n2C=C(c2ccccc2)N1c1ccc([N+](=O)[O-])cc1	NCI-H460 lung	6.6 µM
CCCCCN(CCCCC)CCCNc1c2c(nc3ccc(Cl)cc13)CCCC2	NCI-H460 lung	6.9 µM
COC1CCC(N2C(=O)CNc3ncc(-c4ccc(C(C)(C)O)nc4)nc32)CC1 (centres undefined)	NCI-H460 lung	> 46 µM
CC(C)c1ccc(/C=C2/C=C(c3ccc4ccccc4c3)OC2=O)cc1	NCI-H460 lung	> 100 µM
CNC(=O)C(C)C1CCC2(C)C=CC(=O)C(C)=C2C1O (centres undefined)	NCI-H460 lung	> 100 µM
COc1c(C)c(C/C=C(\C)CCCCO[Si](c2ccccc2)(c2ccccc2)C(C)(C)C)c(OC)c(OC)c1OC	NCI-H460 lung	25 µM
O=C1CC(c2ccc3c(c2)OCO3)Nc2ccccc21 (centres undefined)	NCI-H460 lung	33.7 µM
COc1cc(Cc2cnc(/N=C3\C(=O)N(CN4CCN(c5c(F)cc6c(=O)c(C(=O)O)cn(C7CC7)c6c5OC)CC4C)c4ccc(F)cc43)nc2N)cc(OC)c1OC (centres undefined)	NCI-H460 lung	> 100 µM
NC(=O)c1cccc2cn(-c3ccc([C@@H]4CCCNC4)cc3)nc12	NCI-H460 lung	18.7 µM
c1ccc(N=C2SC3=Nc4cccc5cccc(c45)N3C2=Nc2ccccc2)cc1	NCI-H460 lung	> 100 µM
O=C(Nc1ccccc1OC(F)(F)F)Nc1n[nH]c2ccccc12	NCI-H460 lung	> 100 µM
CCOC(=O)C1=C(C)NC(=S)NC1c1ccccc1 (centres undefined)	NCI-H460 lung	> 100 µM
CCOC(=O)CN1C(=O)c2cccc3cc([N+](=O)[O-])cc(c23)C1=O	NCI-H460 lung	17.3 µM
O=C1C2C(C(=O)N1OS(=O)(=O)c1ccccc1)N(Cc1ccccc1)C(=O)N2Cc1ccccc1 (centres undefined)	NCI-H460 lung	> 100 µM
N#CCCN(CCC#N)c1ccc(/C=C2\N=C(c3cc([N+](=O)[O-])ccc3Cl)OC2=O)cc1	NCI-H460 lung	> 100 µM
CN/N=C(/Cc1occc(=O)c1O)C(=O)Nc1ccccc1C	NCI-H460 lung	> 100 µM
